- assay remarks: Inhibition of Nav1.5 in isolated rabbit heart assessed as inhibition of ATX2-induced prolongation of mean action potential duration
- experimental conditions: Oryctolagus cuniculus
readout label: IC50

Exercise: Give reported IC50 value for Cc1noc(Cn2nc3ccc(-c4ccc(OC(F)(F)F)cc4)cn3c2=O)n1
Solution: 1200 nM

* * *

- assay remarks: Plasma protein binding in dog
- Assay type: ADME, cell-free, Canis lupus familiaris
- experimental conditions: read-out: PPB (converted)
readout label: fraction unbound
Enter a number only.

Exercise: Retrieve fraction unbound measured for Cc1noc(Cn2nc3ccc(-c4ccc(OC(F)(F)F)cc4)cn3c2=O)n1 and print it.
Solution: 0.057

* * *

- assay remarks: Terminal half life in monkey
- Assay type: ADME, organism-based, Macaca mulatta
- experimental conditions: rhesus monkey, in vivo; read-out: beta t1/2 (converted)
readout label: half-life

Exercise: Give me measured half-life, please, for this compound: Cc1noc(Cn2nc3ccc(-c4ccc(OC(F)(F)F)cc4)cn3c2=O)n1
Solution: 4.78 h

* * *

- assay remarks: Half life in dog microsomes
- Assay type: ADME, Canis lupus familiaris, Microsome
readout label: half-life (h)
Write the answer as a number in h, unit excluded.

Before answering, review these 5 worked examples.
Exercise: Return value of half-life for input O=c1[nH]nc2ccc(-c3ccc(Oc4ccc(F)cc4)cc3)cn12 , no commentary.
Solution: 4.55

Exercise: Consider the molecule Cc1cnc(Cn2nc3ccc(-c4ccc(OC(F)(F)F)cc4)cn3c2=O)o1 and give its recorded half-life.
Solution: 3.8

Exercise: Specify measured half-life for Cc1coc(Cn2nc3ccc(-c4ccc(OC(F)(F)F)cc4)cn3c2=O)n1 .
Solution: 2.67

Exercise: Provide measured half-life value, entry: O=c1[nH]nc2ccc(-c3ccc(OC(F)(F)F)cc3)cn12
Solution: 3.17

Exercise: Quickly give me recorded half-life for Cc1nc(Cn2nc3ccc(-c4ccc(Oc5ccc(F)cc5)cc4)cn3c2=O)no1
Solution: 2.78

***
Exercise: Give the value of half-life reported for the following: Cc1noc(Cn2nc3ccc(-c4ccc(Oc5ccc(Cl)cc5)cc4)cn3c2=O)n1
Solution: 1.57

Exercise: Return reported half-life. Input molecule: O=c1n(Cc2noc(CO)n2)nc2ccc(-c3ccc(Oc4ccc(F)cc4)cc3)cn12
Solution: 3.02

Exercise: # return recorded half-life for entry Cc1noc(Cn2nc3ccc(-c4ccc(Oc5ccc(F)cc5)cc4)cn3c2=O)n1
Solution: 3.62

Exercise: Specify measured half-life for O=c1n(Cc2nnc(C3CC3)o2)nc2ccc(-c3ccc(Oc4ccc(F)cc4)cc3)cn12 .
Solution: 4.78

Exercise: Please look at this molecule and report its half-life: Cc1nc(Cn2nc3ccc(-c4ccc(Oc5ccc(Cl)cc5)cc4)cn3c2=O)no1
Solution: 5.9

Exercise: Retrieve half-life measured for Cc1noc(Cn2nc3ccc(-c4ccc(OC(F)(F)F)cc4)cn3c2=O)n1 and print it.
Solution: 3.93

Exercise: Complete the entry with half-life for O=c1n(Cc2nc(C3CC3)co2)nc2ccc(-c3ccc(OC(F)(F)F)cc3)cn12
Solution: 1.8

* * *

- target desc: Sodium channel protein type 5 subunit alpha (Homo sapiens, UniProt Q14524)
- Sequence (Q14524 whole entry): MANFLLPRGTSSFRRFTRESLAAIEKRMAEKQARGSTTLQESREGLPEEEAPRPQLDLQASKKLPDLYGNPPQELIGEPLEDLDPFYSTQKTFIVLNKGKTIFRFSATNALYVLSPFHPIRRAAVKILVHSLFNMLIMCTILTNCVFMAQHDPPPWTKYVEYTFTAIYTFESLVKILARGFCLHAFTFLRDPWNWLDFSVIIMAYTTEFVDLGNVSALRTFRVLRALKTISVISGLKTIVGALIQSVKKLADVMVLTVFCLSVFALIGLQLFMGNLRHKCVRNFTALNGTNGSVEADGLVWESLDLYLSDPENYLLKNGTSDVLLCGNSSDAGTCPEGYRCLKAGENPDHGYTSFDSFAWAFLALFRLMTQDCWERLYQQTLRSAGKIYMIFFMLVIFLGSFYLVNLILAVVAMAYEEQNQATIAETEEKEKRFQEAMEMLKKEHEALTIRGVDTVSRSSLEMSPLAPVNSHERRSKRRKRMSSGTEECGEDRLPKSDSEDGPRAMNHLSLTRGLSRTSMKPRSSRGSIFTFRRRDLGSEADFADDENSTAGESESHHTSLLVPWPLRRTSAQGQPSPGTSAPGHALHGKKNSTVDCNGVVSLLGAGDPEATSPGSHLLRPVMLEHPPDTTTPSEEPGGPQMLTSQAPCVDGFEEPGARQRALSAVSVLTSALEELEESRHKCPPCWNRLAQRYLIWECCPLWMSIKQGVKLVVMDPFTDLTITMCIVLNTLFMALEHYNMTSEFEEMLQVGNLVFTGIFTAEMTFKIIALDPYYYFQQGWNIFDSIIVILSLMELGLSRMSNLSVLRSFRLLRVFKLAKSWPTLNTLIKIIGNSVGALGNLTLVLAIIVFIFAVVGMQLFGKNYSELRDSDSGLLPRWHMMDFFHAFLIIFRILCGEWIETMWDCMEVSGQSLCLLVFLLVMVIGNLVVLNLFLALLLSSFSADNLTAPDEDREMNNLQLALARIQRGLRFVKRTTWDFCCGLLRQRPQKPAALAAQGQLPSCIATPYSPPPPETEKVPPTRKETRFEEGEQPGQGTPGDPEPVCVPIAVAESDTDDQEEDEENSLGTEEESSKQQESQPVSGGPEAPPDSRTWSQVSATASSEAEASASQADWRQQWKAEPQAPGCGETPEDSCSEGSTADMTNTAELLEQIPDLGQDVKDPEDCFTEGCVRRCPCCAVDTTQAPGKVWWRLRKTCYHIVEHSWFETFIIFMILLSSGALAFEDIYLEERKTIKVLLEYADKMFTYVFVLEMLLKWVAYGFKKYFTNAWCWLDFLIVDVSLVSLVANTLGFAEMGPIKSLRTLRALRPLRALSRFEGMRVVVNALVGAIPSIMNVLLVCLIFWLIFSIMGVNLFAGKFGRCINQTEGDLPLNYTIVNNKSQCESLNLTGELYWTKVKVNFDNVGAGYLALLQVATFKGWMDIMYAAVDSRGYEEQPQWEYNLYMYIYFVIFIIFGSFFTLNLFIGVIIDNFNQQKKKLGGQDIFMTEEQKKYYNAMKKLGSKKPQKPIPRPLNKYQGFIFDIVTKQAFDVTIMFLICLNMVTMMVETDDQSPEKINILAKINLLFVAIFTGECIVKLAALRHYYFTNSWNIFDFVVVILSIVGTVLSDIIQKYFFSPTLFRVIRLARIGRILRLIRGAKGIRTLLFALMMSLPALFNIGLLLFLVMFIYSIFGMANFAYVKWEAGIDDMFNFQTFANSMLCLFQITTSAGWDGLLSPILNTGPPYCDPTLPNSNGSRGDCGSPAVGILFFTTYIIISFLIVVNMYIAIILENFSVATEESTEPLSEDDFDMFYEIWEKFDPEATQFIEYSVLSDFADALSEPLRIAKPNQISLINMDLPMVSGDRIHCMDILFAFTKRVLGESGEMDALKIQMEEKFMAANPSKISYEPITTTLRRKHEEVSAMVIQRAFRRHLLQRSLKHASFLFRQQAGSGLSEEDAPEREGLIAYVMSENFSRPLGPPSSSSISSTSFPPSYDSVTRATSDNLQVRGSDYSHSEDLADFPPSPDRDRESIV
- assay remarks: Inhibition of 0.1 Hz stimulated human Nav1.5alpha expressed in HEK293 cells assessed as inhibition of late sodium current with 3 compound additions for 7 to 8 mins at holding potential -120 mV in presence of late sodium current activator tefluthrin/ATX2 measured immediately after third compound addition by PatchXpress method
- Assay type: cell-based
# log10 of IC50 listing for each entry below
Hi team, quick reminder: these entries are log10 of IC50 (µM).

Example results:
Exercise: State, in one line, measured log10 of IC50 of Cc1coc(Cn2nc3ccc(-c4ccc(OC(F)(F)F)cc4)cn3c2=O)n1
Solution: 0.40

Exercise: Quick one: give measured log10 of IC50 for O=c1[nH]nc2ccc(-c3ccc(OC(F)(F)F)cc3)cn12
Solution: 0.28

Exercise: Dear colleague, please send me the reported log10 of IC50 for CCc1noc(Cn2nc3ccc(-c4ccc(OC(F)(F)F)cc4)cn3c2=O)n1 when you can.
Solution: 0.60

Exercise: Give log10 of IC50 for the following compound: Cc1noc(Cn2nc3ccc(-c4ccc(OC(F)(F)F)cc4)cn3c2=O)n1
Solution: 0.28

Exercise: Please give measured log10 of IC50 of the following entry: Cc1nc(Cn2nc3ccc(-c4ccc(OC(F)(F)F)cc4)cn3c2=O)no1
Solution: 0.52

Exercise: Recall and state the measured log10 of IC50 for Cc1noc(Cn2nc3ccc(-c4ccc(Oc5ccc(Cl)cc5)cc4)cn3c2=O)n1 .
Solution: 2.13

Exercise: Fill in reported log10 of IC50 for this entry: O=c1n(Cc2noc(CO)n2)nc2ccc(-c3ccc(Oc4ccc(F)cc4)cc3)cn12
Solution: 2.99

Exercise: Supply recorded log10 of IC50 for O=c1n(Cc2nc(C3CC3)co2)nc2ccc(-c3ccc(OC(F)(F)F)cc3)cn12 here.
Solution: 0.48

Could you now look at the following compound, please?
Exercise: Check the records and state log10 of IC50 for O=c1n(Cc2nc(-c3c(Cl)cccc3Cl)no2)nc2ccc(-c3ccc(OC(F)(F)F)cc3)cn12
Solution: 0.54

Cited source for all entries: ChEMBL document CHEMBL3808373
